Values from PubChem BioAssay AID1259407

Test system: CCRIS mutagenicity, Ames/micronucleus/aberration tests
Assay: CCRIS mutagenicity studies
Details: Test System: AMES SALMONELLA TYPHIMURIUM; Strain/Indicator: TA1537; Metabolic Activation: NONE; Method: PREINCUBATION
Excerpt: The CCRIS database contains chemical records with carcinogenicity, mutagenicity, tumor promotion, and tumor inhibition test results. It was developed by the National Cancer Institute (NCI). Data are derived from studies cited in primary journals, current awareness tools, NCI reports, and other sources. Test results have been reviewed by experts in carcinogenesis and mutagenesis. CCRIS provides historical information from the years 1985 - 2011. It is no longer updated. […]
Active and inactive are the calls of the source. How the calls were made is not given here.

Smiles Entry	mutagenic call
C=CC=O	inactive; negative
c1ccc(N=NNc2ccccc2)cc1	inactive; negative
COc1ccc(C=O)cc1	inactive; negative
O=C1OC(=O)c2c(Br)c(Br)c(Br)c(Br)c21	inactive; negative
N#CCBr	inactive; negative

---

system: CCRIS mutagenicity, Ames/micronucleus/aberration tests; assay: CCRIS mutagenicity studies; conditions: Test System: AMES SALMONELLA TYPHIMURIUM; Strain/Indicator: YG1029; Metabolic Activation: RAT, LIVER, S-9, PCB; Method: PREINCUBATION
Calls of active or inactive are those of the source. The rule behind the calls is not given here.
Measured Metric: mutagenic call

Smiles Entry	Test System	Measured Metric	Measured Value
Nc1nc(-c2ccc([N+](=O)[O-])cc2)nc2c1ncn2[C@@H]1O[C@H](CO)[C@@H](O)[C@H]1O	CCRIS mutagenicity, Ames/micronucleus/aberration tests	mutagenic call	active; positive
Nc1nc(-c2ccc([N+](=O)[O-])cc2)nc2nc[nH]c12	CCRIS mutagenicity, Ames/micronucleus/aberration tests	mutagenic call	active; positive
Nc1ncnc2c1ncn2-c1ccc([N+](=O)[O-])cc1[N+](=O)[O-]	CCRIS mutagenicity, Ames/micronucleus/aberration tests	mutagenic call	active; positive

---

system: CCRIS mutagenicity, Ames/micronucleus/aberration tests; test: CCRIS mutagenicity studies; details: Test System: AMES SALMONELLA TYPHIMURIUM; Strain/Indicator: TA100; Metabolic Activation: RAT, LIVER, S-9; Method: PREINCUBATION
Calls of active or inactive are those of the source. The rule behind the calls is not given here.
Labels: YES = active, NO = inactive

Molecule	Label
Cc1cc2ccccc2c2ccc3ccccc3c12	YES
Oc1c(Cl)cc(Cl)c2cccnc12	NO
Cc1ccccc1N=Nc1ccc(N)c(C)c1N	YES
C1O[C@@H]1[C@@H]1CO1	NO
c1ccc2cnccc2c1	NO
Cc1ccc2ccccc2n1	NO
O=C(O)C(F)(F)C(F)(Cl)C(F)(F)C(F)(Cl)C(F)(F)Cl (stereo not drawn)	NO
Clc1ccc2ccccc2n1	NO

---

test system: CCRIS mutagenicity, Ames/micronucleus/aberration tests; assay: CCRIS mutagenicity studies; settings: Test System: AMES SALMONELLA TYPHIMURIUM; Strain/Indicator: TA100; Metabolic Activation: NONE; Method: STANDARD PLATE
Active and inactive are the calls of the source. No rule for the calls is given here.
Possible outcomes: true (1) = active, false (0) = inactive

Compound	Test System	Label
O=C(O)CN(CCN(CC(=O)O)CC(=O)O)CC(=O)O	CCRIS mutagenicity, Ames/micronucleus/aberration tests	false (0)
CCCCCCCCCC/C=C/C1CC(=O)OC1=O (centres undefined)	CCRIS mutagenicity, Ames/micronucleus/aberration tests	false (0)
CC(C)(O)CCc1ccc(O)c2c(=O)c3c(O)c4c(cc3oc12)O[C@H]1OC=C[C@@H]41	CCRIS mutagenicity, Ames/micronucleus/aberration tests	true (1)
C=C(Cl)Cl	CCRIS mutagenicity, Ames/micronucleus/aberration tests	true (1)
CC(C)=CC1C(C(=O)OCc2cccc(Oc3ccccc3)c2)C1(C)C (centres undefined)	CCRIS mutagenicity, Ames/micronucleus/aberration tests	false (0)
CC(C)N1C(=O)c2ccccc2NS1(=O)=O	CCRIS mutagenicity, Ames/micronucleus/aberration tests	false (0)
ClCCN(CCCl)c1ccc2ccccc2c1	CCRIS mutagenicity, Ames/micronucleus/aberration tests	true (1)
CCN(CC)c1ccc(N=Nc2ccc([N+](=O)[O-])cc2)cc1	CCRIS mutagenicity, Ames/micronucleus/aberration tests	false (0)
CCNCC#CC(C)(C)OC(=O)C(O)(c1ccccc1)C1CCCCC1 (centres undefined)	CCRIS mutagenicity, Ames/micronucleus/aberration tests	false (0)
c1ccc([C@H]2O[C@@H]2c2ccccc2)cc1	CCRIS mutagenicity, Ames/micronucleus/aberration tests	false (0)
C#C[C@]1(O)CC[C@H]2[C@@H]3CCC4=CC(=O)CC[C@@H]4[C@H]3CC[C@@]21C	CCRIS mutagenicity, Ames/micronucleus/aberration tests	false (0)
CC(=O)C(=O)c1ccccc1	CCRIS mutagenicity, Ames/micronucleus/aberration tests	false (0)
C[C@@H]1C[C@H]2[C@@H]3CCC4=CC(=O)C=C[C@]4(C)[C@@]3(F)[C@@H](O)C[C@]2(C)[C@@]1(O)C(=O)CO	CCRIS mutagenicity, Ames/micronucleus/aberration tests	false (0)
O=C1c2c(O)ccc(O)c2C(=O)c2c(NCCNCCO)ccc(NCCNCCO)c21	CCRIS mutagenicity, Ames/micronucleus/aberration tests	false (0)
c1ccc2c(c1)-c1cc3ccc4ccccc4c3cc1[C@H]1N[C@@H]21	CCRIS mutagenicity, Ames/micronucleus/aberration tests	true (1)
CCCCCCCCCCCC(=O)OCCS(=O)(=O)O	CCRIS mutagenicity, Ames/micronucleus/aberration tests	false (0)
C[C@@H](C(=O)OC(C)(C)C)N(N=[N+]=[N-])C(=O)OC(C)(C)C	CCRIS mutagenicity, Ames/micronucleus/aberration tests	true (1)
NC(=O)OC[C@H](O)[C@@H](O)[C@H](N)C(=O)N[C@H](C(=O)[O-])[C@H]1O[C@@H](n2cc(C(=O)[O-])c(=O)[nH]c2=O)[C@H](O)[C@@H]1O.[Zn+2]	CCRIS mutagenicity, Ames/micronucleus/aberration tests	true (1)
ClCc1cc2c3ccccc3cc3ccc4cccc1c4c32	CCRIS mutagenicity, Ames/micronucleus/aberration tests	true (1)
ClCc1c2ccccc2cc2c1ccc1ccccc12	CCRIS mutagenicity, Ames/micronucleus/aberration tests	true (1)
CC(=O)Nc1ccc([C@@H]2O[C@@H]2C(=O)c2ccccc2)cc1	CCRIS mutagenicity, Ames/micronucleus/aberration tests	true (1)
COc1ccc(CCC2CO2)cc1 (centres undefined)	CCRIS mutagenicity, Ames/micronucleus/aberration tests	true (1)
O=[N+]([O-])c1cccc2cnsc12	CCRIS mutagenicity, Ames/micronucleus/aberration tests	true (1)
[Cl-].[Cl-].[Cl-].[Cr+3].c1cnc2c(c1)ccc1cccnc12.c1cnc2c(c1)ccc1cccnc12	CCRIS mutagenicity, Ames/micronucleus/aberration tests	true (1)
C=C(C)C(=O)OCC(C)(C)C	CCRIS mutagenicity, Ames/micronucleus/aberration tests	false (0)
C=CC(=O)OCCCCCOC(=O)C=C	CCRIS mutagenicity, Ames/micronucleus/aberration tests	false (0)
ONc1ccc2ccccc2c1	CCRIS mutagenicity, Ames/micronucleus/aberration tests	true (1)
O=[N+]([O-])c1cc2[nH]c3ccc4ccccc4c3c2c2ccccc12	CCRIS mutagenicity, Ames/micronucleus/aberration tests	false (0)
COP(=O)(OC)Oc1ccc([N+](=O)[O-])c(C)c1	CCRIS mutagenicity, Ames/micronucleus/aberration tests	false (0)
CCCCOC(=O)c1cccc2cccnc12	CCRIS mutagenicity, Ames/micronucleus/aberration tests	false (0)
COc1ccc2nc3cc(Cl)ccc3c(NCCCNCCCl)c2n1	CCRIS mutagenicity, Ames/micronucleus/aberration tests	true (1)
CCCCC1CO1 (centres undefined)	CCRIS mutagenicity, Ames/micronucleus/aberration tests	false (0)
CC(Cl)CCl (centres undefined)	CCRIS mutagenicity, Ames/micronucleus/aberration tests	true (1)
CCCON=O	CCRIS mutagenicity, Ames/micronucleus/aberration tests	false (0)
c1ccc(-c2ccccc2)cc1	CCRIS mutagenicity, Ames/micronucleus/aberration tests	false (0)
O=S(=O)(Cc1ccccc1)N1[C@@H]2c3ccccc3-c3ccccc3[C@@H]21 (some centres undefined)	CCRIS mutagenicity, Ames/micronucleus/aberration tests	true (1)
CCOCOCC	CCRIS mutagenicity, Ames/micronucleus/aberration tests	false (0)
O=[N+]([O-])c1cc2ccccc2c2c([N+](=O)[O-])cccc12	CCRIS mutagenicity, Ames/micronucleus/aberration tests	true (1)
O=C1NC(=O)C(CBr)=C1Cl	CCRIS mutagenicity, Ames/micronucleus/aberration tests	true (1)
Cc1cc(C)cc(C)c1	CCRIS mutagenicity, Ames/micronucleus/aberration tests	false (0)
Cc1ccc(C(=O)ON(OCc2ccccc2)C(=O)c2ccccc2)cc1	CCRIS mutagenicity, Ames/micronucleus/aberration tests	true (1)
C=C(C)C(=O)OCCOCCOC(=O)C(=C)C	CCRIS mutagenicity, Ames/micronucleus/aberration tests	false (0)
C1CCC2OCCOCCOCCOCCOC3CCCCC3OCCOCCOCCOCCOC2C1 (centres undefined)	CCRIS mutagenicity, Ames/micronucleus/aberration tests	false (0)
C#CC(OC(=O)NC1CCCCC1)(c1ccccc1)c1ccc(C)c(C)c1 (centres undefined)	CCRIS mutagenicity, Ames/micronucleus/aberration tests	true (1)
O=C(O)c1cc([N+](=O)[O-])cc2cccnc12	CCRIS mutagenicity, Ames/micronucleus/aberration tests	false (0)
CC[C@]1(O)CC2CN(CCc3c([nH]c4ccccc34)[C@@](C(=O)OC)(c3cc4c(cc3OC)N(C=O)[C@H]3[C@@](O)(C(=O)OC)[C@H](OC(C)=O)[C@]5(CC)C=CCN6CC[C@]43[C@@H]65)C2)C1 (some centres undefined)	CCRIS mutagenicity, Ames/micronucleus/aberration tests	false (0)
COC(=O)c1ccco1	CCRIS mutagenicity, Ames/micronucleus/aberration tests	false (0)
Nc1cc(C(F)(F)F)ccc1Cl	CCRIS mutagenicity, Ames/micronucleus/aberration tests	false (0)
CC/C=C/C=C/C=C/C=C/C=O	CCRIS mutagenicity, Ames/micronucleus/aberration tests	false (0)
